- Test system: waterhemp
- measurement.description: Test C postemergence
- Assay type: in vivo, Amaranthus rudis
- test.conditions: 125 g ai/ha, postemergence; visual rating, scale 0 to 100 (0 no effect, 100 complete control)
Provide the reported Plant response rating, Waterhemp of each item.
// return a plain number; no unit text

Q: Check the records and state Plant response rating, Waterhemp for Clc1cnc(Oc2cccc(Cl)c2-n2cc(Cl)cn2)nc1
Result: 85

Q: For the compound FC(F)c1cccc(Oc2ncc(Br)cn2)c1-n1cc(C(F)(F)F)cn1 , give its measured Plant response rating, Waterhemp value.
Result: 80

Q: Please give measured Plant response rating, Waterhemp of the following entry: Cc1cnc(Oc2cccc(C#N)c2-n2cc(C(F)(F)F)cn2)nc1
Result: 75

Q: Provide Plant response rating, Waterhemp value for the following compound: Fc1cnc(Oc2cccc(C(F)F)c2-n2cc(C(F)(F)F)cn2)nc1
Result: 75

Q: In one line, give reported Plant response rating, Waterhemp of the entry Clc1cnc(Oc2cccc(Br)c2-n2cc(Cl)cn2)nc1 .
Result: 80

Q: Fill in reported Plant response rating, Waterhemp for this entry: FC(F)c1cnn(-c2c(Cl)cccc2Oc2ncc(Cl)cn2)c1
Result: 85

---

- Test system: giant foxtail
- measurement.description: Test A postemergence
- Type: in vivo, Setaria faberii
- test.conditions: 125 g ai/ha, 0 to 100 scale where 0 is no effect and 100 is complete control
# class 1 = Foxtail, Giant plant response rating below 50 (exclusive); class 0 = Foxtail, Giant plant response rating at/above 50

Q: Check if Foxtail, Giant plant response rating falls below 50 for N#Cc1cccc(Oc2ncc(Cl)cn2)c1-n1cccn1 .
Result: class 1

Q: Criterion: Foxtail, Giant plant response rating strictly below 50. Is it met by N#Cc1cnc(Oc2ccccc2-n2cccn2)nc1 ?
Result: class 1

Q: Say whether its Foxtail, Giant plant response rating is strictly beneath 50. Entry: N#Cc1cnn(-c2c(C#N)cccc2Oc2ncc(Br)cn2)c1
Result: class 0

Q: In plain terms, does COC(=O)c1cccc(Oc2ncc(Cl)cn2)c1-n1cc(Br)cn1 come in under 50 for Foxtail, Giant plant response rating?
Result: class 1

Q: # strict comparison: is reported Foxtail, Giant plant response rating < 50? input = Fc1cnc(Oc2cccc(Br)c2-n2cc(OCC(F)(F)F)cn2)nc1
Result: class 0

Q: Field: below-cutoff. Rule: recorded Foxtail, Giant plant response rating strictly less than 50. Subject: CCCOc1cnn(-c2c(F)cccc2Oc2ncc(F)cn2)c1
Result: class 1

Q: Given N#Cc1cccc(Oc2ncc(Cl)cn2)c1-n1cc(SC(F)(F)F)cn1 , is recorded Foxtail, Giant plant response rating strictly lower than 50?
Result: class 1

---

- System: barnyardgrass
- measurement.description: Test A postemergence
- Format: in vivo, Echinochloa crus-galli
- test.conditions: 125 g ai/ha, 0 to 100 scale where 0 is no effect and 100 is complete control
measured.quantity: Barnyardgrass plant response rating
Write the number on its own, no unit after it.

Q: Recall and state the measured Barnyardgrass plant response rating for FC(F)c1cnn(-c2c(Cl)cccc2Oc2ncc(Cl)cn2)c1 .
Result: 60

Q: Indicate the recorded Barnyardgrass plant response rating value for this compound: CC(C)Oc1cnn(-c2c(C#N)cccc2Oc2ncc(Cl)cn2)c1
Result: 70

Q: Check the records and state Barnyardgrass plant response rating for N#Cc1cnn(-c2c(C#N)cccc2Oc2ncc(Cl)cn2)c1
Result: 80

Q: Quick one: give measured Barnyardgrass plant response rating for O=Cc1cccc(Oc2ncc(Br)cn2)c1-n1cc(Br)cn1
Result: 0

Q: Return reported Barnyardgrass plant response rating. Input compound: Fc1cnc(Oc2cccc(C(F)F)c2-n2cc(C(F)(F)F)cn2)nc1
Result: 70

Q: Respond only with Barnyardgrass plant response rating recorded for N#Cc1cccc(Oc2ncc(Cl)cn2)c1-n1cccn1
Result: 0

Q: For the compound COc1cccc(Oc2ncc(Cl)cn2)c1-n1cc(Cl)cn1 , give its reported Barnyardgrass plant response rating.
Result: 20

Q: Give Barnyardgrass plant response rating for FC(F)Oc1cnn(-c2c(Br)cccc2Oc2ncc(Cl)cn2)c1
Result: 40

Q: Supply recorded Barnyardgrass plant response rating for O=Cc1cccc(Oc2ncc(Br)cn2)c1-n1cc(Cl)cn1 here.
Result: 0

---

- Tested on: blackgrass
- measurement.description: Test C postemergence
- Type: in vivo, Alopecurus myosuroides
- test.conditions: 125 g ai/ha, postemergence; visual rating, scale 0 to 100 (0 no effect, 100 complete control)
Would you mind telling me the reported Plant response rating, Blackgrass of each entry?
Response field accepts a number only; no unit should be typed.

Q: Supply recorded Plant response rating, Blackgrass for Clc1cnc(Oc2cccc(Cl)c2-n2cc(Cl)cn2)nc1 here.
Result: 50

Q: Retrieve Plant response rating, Blackgrass measured for Cc1cnc(Oc2cccc(C#N)c2-n2cc(C(F)(F)F)cn2)nc1 and print it.
Result: 30

Q: Fill in Plant response rating, Blackgrass for record N#Cc1cn(-c2c(C#N)cccc2Oc2ncc(Cl)cn2)nn1
Result: 10

Q: Answer with the recorded Plant response rating, Blackgrass for the compound listed here: Clc1cnc(Oc2ccccc2-n2cc(Br)nn2)nc1
Result: 0

Q: Please look at this compound and report its Plant response rating, Blackgrass: FCc1cn(-c2ccccc2Oc2ncc(Cl)cn2)nn1
Result: 0

---

Consider the following compounds; for each one, report its Ryegrass, Italian plant response rating.
- System: Italian ryegrass
- measurement.description: Test A postemergence
- Format: in vivo, Lolium multiflorum
- test.conditions: 125 g ai/ha, 0 to 100 scale where 0 is no effect and 100 is complete control
// keep it numeric: no unit symbol after the value

Q: Return value of Ryegrass, Italian plant response rating for input CCCOc1cnn(-c2c(F)cccc2Oc2ncc(Cl)cn2)c1 , no commentary.
Result: 0

Q: Output Ryegrass, Italian plant response rating of CC(C)Oc1cnn(-c2c(C#N)cccc2Oc2ncc(Cl)cn2)c1
Result: 30

Q: Read the entry FCc1cccc(Oc2ncc(F)cn2)c1-n1cc(I)cn1 and write its reported Ryegrass, Italian plant response rating.
Result: 20

Q: Specify reported Ryegrass, Italian plant response rating for the compound shown: FC(F)Oc1cnn(-c2c(Br)cccc2Oc2ncc(Cl)cn2)c1
Result: 20

---

So I've got a bunch of compounds here, and I need their Plant response rating, Corn values.
- System: corn
- measurement.description: Test A preemergence
- Assay type: in vivo, Zea mays
- test.conditions: 125 g ai/ha, 0 to 100 scale where 0 is no effect and 100 is complete control
Field format: numeric only.

Q: Assign Plant response rating, Corn to the following record: N#Cc1cccc(Oc2ncc(Cl)cn2)c1-n1cc(Cl)cn1
Result: 30

Q: Indicate the recorded Plant response rating, Corn value for this compound: N#Cc1cccc(Oc2ncc(Br)cn2)c1-n1cc(Cl)cn1
Result: 30

Q: Let me know recorded Plant response rating, Corn for N#Cc1cccc(Oc2ncc(Br)cn2)c1-n1cc(Br)cn1 , thanks.
Result: 0

Q: Please indicate Plant response rating, Corn recorded for Fc1cnc(Oc2cccc(C(F)F)c2-n2cc(C(F)(F)F)cn2)nc1
Result: 10

Q: Return value of Plant response rating, Corn for input N#Cc1cnn(-c2ccccc2Oc2ncc(Cl)cn2)c1 , no commentary.
Result: 0

Q: Entry FC(F)(F)c1cccc(Oc2ncc(Br)cn2)c1-n1cc(Br)cn1 needs its Plant response rating, Corn filled in; supply it.
Result: 0

Q: Using the record for Fc1cccc(Oc2ncc(Cl)cn2)c1-n1cc(Cl)cn1 , state its measured Plant response rating, Corn.
Result: 0

---

- Test system: wild oat
- measurement.description: Test C postemergence
- Format: in vivo, Avena fatua
- test.conditions: Postemergence, 62 g ai/ha; scale 0 to 100 (0 no effect, 100 complete control)
Exercise: state measured Plant response rating, Oat, Wild for each of the compounds provided.
Reply with just the number.

Q: Give Plant response rating, Oat, Wild only, for FC(F)(F)c1cnn(-c2c(Br)cccc2Oc2ncc(Cl)cn2)c1 , using wild oat data.
Result: 5

Q: Give Plant response rating, Oat, Wild; test system wild oat; compound Clc1cnc(Oc2cccc(Br)c2-n2cc(I)nn2)nc1
Result: 10

Q: Lab note: record Plant response rating, Oat, Wild of O=Cc1cccc(Oc2ncc(I)cn2)c1-n1cc(Br)cn1 tested on wild oat.
Result: 0

Q: With wild oat as the test system, provide measured Plant response rating, Oat, Wild for this compound: CC(C)c1cnn(-c2c(C#N)cccc2Oc2ncc(Cl)cn2)c1
Result: 5

---

Answer each item with its documented Plant response rating, Oilseed Rape.
- Test system: oilseed rape
- measurement.description: Test C preemergence
- Format: in vivo, Brassica napus
- test.conditions: Preemergence, 62 g ai/ha; scale 0 to 100, 0 no effect, 100 complete control
// keep it numeric: no unit symbol after the value

Q: Give Plant response rating, Oilseed Rape for the following compound: N#Cc1cnn(-c2c(Oc3ncc(F)cn3)cccc2C(F)F)c1
Result: 100

Q: Could you please provide reported Plant response rating, Oilseed Rape for Cc1cnc(Oc2cccc(C#N)c2-n2cc(C(F)(F)F)cn2)nc1 ? Thanks!
Result: 100

Q: Return value of Plant response rating, Oilseed Rape for input FC(F)Oc1cnn(-c2c(Cl)cccc2Oc2ncc(Cl)cn2)c1 , no commentary.
Result: 100

Q: Read the entry N#Cc1cnn(-c2c(C#N)cccc2Oc2ncc(Cl)cn2)c1 and write its reported Plant response rating, Oilseed Rape.
Result: 98

Reference source: patent US9695155B2
